Examples of compounds with documented inhibition at 1 µM follow.
target: IKZF2 (Helios) (Homo sapiens, UniProt Q96SW2+Q9UKS7); construct: Leu-Asp junction (codons ctcgac before the linker); mScarlet (behind P2A) (C, cleaved yes); expressed in transfected cells; assay: IKZF2 reporter degradation assay (HEK 293T IKZF2-mNeonGreen reporter cell line); type: cell-based; settings: HEK-293T, 24 h, @ 1 μM, HEK 293T IKZF2-mNeonGreen reporter, 24 hours incubation
Sequence (Q9UKS7 whole entry): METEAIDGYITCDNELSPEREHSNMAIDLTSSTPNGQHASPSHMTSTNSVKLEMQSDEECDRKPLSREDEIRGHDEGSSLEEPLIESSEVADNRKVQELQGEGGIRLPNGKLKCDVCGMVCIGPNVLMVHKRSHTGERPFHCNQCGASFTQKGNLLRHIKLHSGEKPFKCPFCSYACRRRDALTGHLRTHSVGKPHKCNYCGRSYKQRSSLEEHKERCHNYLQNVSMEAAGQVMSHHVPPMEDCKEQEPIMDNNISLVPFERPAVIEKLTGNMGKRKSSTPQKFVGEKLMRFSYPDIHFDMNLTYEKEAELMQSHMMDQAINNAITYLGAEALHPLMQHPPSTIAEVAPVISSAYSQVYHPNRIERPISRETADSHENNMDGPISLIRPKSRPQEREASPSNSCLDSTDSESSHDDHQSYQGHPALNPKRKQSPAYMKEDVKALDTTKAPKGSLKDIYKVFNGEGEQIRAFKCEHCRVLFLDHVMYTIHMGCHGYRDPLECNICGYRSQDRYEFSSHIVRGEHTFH
Sequence (Q96SW2 whole entry): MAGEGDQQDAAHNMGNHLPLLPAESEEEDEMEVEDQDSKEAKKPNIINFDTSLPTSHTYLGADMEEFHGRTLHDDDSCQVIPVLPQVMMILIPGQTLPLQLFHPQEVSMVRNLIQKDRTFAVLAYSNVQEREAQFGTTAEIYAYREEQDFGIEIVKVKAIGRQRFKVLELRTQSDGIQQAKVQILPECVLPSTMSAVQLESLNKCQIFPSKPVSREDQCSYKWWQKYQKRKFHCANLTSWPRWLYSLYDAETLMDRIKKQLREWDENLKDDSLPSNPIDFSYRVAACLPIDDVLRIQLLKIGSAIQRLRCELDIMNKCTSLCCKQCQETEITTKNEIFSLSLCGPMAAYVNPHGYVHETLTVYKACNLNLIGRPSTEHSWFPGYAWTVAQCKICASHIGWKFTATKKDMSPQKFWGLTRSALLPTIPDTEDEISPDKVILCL
Sequence (Q16531 whole entry partner): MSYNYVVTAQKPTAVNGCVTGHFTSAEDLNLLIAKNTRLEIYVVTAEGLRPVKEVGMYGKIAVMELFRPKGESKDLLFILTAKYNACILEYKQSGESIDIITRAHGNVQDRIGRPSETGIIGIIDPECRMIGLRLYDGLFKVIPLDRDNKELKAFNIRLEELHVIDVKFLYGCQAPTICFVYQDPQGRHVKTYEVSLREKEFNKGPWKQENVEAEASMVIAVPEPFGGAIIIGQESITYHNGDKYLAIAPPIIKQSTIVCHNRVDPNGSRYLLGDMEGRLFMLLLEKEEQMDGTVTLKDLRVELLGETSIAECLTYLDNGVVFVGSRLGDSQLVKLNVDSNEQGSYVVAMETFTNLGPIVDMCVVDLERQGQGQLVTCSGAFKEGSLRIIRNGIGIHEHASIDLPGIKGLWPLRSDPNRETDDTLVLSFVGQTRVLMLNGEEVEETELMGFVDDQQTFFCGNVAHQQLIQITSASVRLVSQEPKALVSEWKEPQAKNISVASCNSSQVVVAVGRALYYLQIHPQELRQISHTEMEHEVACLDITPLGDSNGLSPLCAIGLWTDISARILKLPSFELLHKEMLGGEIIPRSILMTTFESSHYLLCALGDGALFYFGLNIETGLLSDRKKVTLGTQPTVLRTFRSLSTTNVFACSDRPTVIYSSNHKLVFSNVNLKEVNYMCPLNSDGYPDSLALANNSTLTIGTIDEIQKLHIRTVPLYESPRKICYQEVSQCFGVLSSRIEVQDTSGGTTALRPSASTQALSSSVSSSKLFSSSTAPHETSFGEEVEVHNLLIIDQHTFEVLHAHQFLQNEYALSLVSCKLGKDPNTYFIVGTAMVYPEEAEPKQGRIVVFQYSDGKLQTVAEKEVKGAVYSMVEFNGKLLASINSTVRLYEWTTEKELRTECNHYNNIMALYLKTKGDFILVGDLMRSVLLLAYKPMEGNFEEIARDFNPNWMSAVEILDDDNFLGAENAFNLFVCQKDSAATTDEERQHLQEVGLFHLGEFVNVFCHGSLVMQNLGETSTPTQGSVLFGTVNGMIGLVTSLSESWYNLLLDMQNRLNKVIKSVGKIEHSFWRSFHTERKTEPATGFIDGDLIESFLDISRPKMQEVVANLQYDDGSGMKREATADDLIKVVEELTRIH
assay-endpoint: inhibition at 1 µM (%)

[[record]]
compound = "O=C1CCC(N2Cc3cc(OC4CCCCC4N4CC(c5ccc6cccnc6c5)C4)ccc3C2=O)C(=O)N1 (stereo not drawn)"
number = 81.9

[[record]]
compound = "O=C1CCC(N2Cc3cc(O[C@@H]4CCCC[C@H]4N4CC(c5ccc(C(F)(F)F)nc5)C4)ccc3C2=O)C(=O)N1 (single isomer, unassigned)"
number = 50.9

[[record]]
compound = "O=C1CCC(N2Cc3cc(O[C@H]4CCCC[C@@H]4N4CC(c5ccc(Cl)cn5)C4)ccc3C2=O)C(=O)N1 (single isomer, unassigned)"
number = 81.3

[[record]]
compound = "O=C1CCC(N2Cc3cc(O[C@H]4CCCC[C@@H]4N4CC(c5ncc(C(F)(F)F)cn5)C4)ccc3C2=O)C(=O)N1 (mixture of isomers) [Compound 187-B]"
number = 27.4

[[record]]
compound = "O=C1CCC(N2Cc3cc(O[C@@H]4CCCC[C@@H]4N4CC(c5ncc(C(F)(F)F)cn5)C4)ccc3C2=O)C(=O)N1 (mixture of isomers)"
number = 79.7

[[record]]
compound = "O=C1CCC(N2Cc3cc(O[C@H]4CCCC[C@@H]4N4CC(c5ccc6c(c5)OCCO6)C4)ccc3C2=O)C(=O)N1 (stereo partly drawn)"
number = 64.5

